These data points were gathered from PubChem BioAssay AID2369.

- TARGET_UNDER_TEST: Protein phosphatase methylesterase 1 (Mus musculus) (UniProt Q8BVQ5)
- Sequence (Q8BVQ5 whole entry, looked up): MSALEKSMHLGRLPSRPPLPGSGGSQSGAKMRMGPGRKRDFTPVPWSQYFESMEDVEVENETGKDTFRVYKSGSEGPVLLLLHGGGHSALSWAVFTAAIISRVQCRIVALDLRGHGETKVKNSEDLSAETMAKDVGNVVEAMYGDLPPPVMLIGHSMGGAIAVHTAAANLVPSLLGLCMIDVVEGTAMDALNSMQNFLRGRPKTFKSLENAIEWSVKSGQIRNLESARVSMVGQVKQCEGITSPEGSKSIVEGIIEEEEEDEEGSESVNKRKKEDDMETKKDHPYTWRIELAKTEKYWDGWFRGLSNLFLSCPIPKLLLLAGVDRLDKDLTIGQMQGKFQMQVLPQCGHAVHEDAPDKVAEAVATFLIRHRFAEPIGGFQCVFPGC
- PROTOCOL_SUMMARY: PME-1 probe labeling blockade in lysate – cell lysate, mouse brain cytosol, FP-rhodamine, in-gel fluorescence, orthogonal assay for PME-1 inhibitor project, late-stage follow-up (AID 2369)
- TEST_CONDITIONS: FP-rhodamine gel ABPP, band fluorescence, at 20 µM, hits give high values
RECORDED_ENDPOINT: inhibition (%)

1: N#C/C(=C\c1cccn1-c1ccc(Cl)cc1)S(=O)(=O)c1ccccc1
2: N#C/C(=C\c1cccn1S(=O)(=O)c1cccc(C(=O)O)c1)S(=O)(=O)c1ccc(F)cc1
Given 1 and given 2 , which shows the smaller recorded inhibition? Could you answer with the label of the item you picked? 1
